src = the supplement of paper PMC4466140

measurement target: CaRvs167-3
assay remarks: SPOT peptide array binding signal intensity (averaged, normalized) (arbitrary units (background-subtracted, floor 0; scale differs between SH3 domains)); higher = stronger binding of the SH3 domain to the peptide
This listing pairs binders with measured SPOT peptide array binding signal intensity.

Here are 2 binders together with their reported answers.
Query string: Quick one: SPOT peptide array binding signal intensity for TTNRGPPPLPPRANV ?
Result string: ≤ 0

Query string: Quick one: SPOT peptide array binding signal intensity for MAMRPIPPLPTESEY ?
Result string: ≤ 0

Next binder, SPOT peptide array binding signal intensity to be filled in.
Query string: Quick one: SPOT peptide array binding signal intensity for DHPKGPPPPPPPDEK ?
Result string: ≤ 0
